Consider the following molecules; for each one, report its pIC50.
- Tested Target: BACE2 (Rattus norvegicus (Rat))
- Sequence (Q6IE75 63-514): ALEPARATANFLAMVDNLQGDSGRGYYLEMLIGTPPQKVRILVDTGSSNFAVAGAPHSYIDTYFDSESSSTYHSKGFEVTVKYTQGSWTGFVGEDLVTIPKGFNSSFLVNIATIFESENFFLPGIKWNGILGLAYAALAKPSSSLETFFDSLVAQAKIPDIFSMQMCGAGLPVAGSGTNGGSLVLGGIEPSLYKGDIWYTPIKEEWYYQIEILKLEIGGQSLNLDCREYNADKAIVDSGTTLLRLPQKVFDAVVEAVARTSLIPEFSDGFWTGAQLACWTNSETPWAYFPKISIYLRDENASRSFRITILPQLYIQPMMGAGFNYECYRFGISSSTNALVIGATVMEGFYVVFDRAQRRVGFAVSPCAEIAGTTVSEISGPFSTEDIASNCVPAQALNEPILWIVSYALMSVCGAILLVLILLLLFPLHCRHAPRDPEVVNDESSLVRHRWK
- Protocol Notes: Assay for BACE inhibition by measuring cellular TMEM27 cleavage
- Study Conditions: INS-TMEM27 (INS1e rat cell line, inducible hTMEM27); shed TMEM27 by ELISA
Units for pIC50: none; it is -log10 of a concentration expressed in mol/L.

INPUT: Field request: pIC50 | item: C[C@]1(c2cc(NC(=O)c3ccc(C#CC4CC4)cn3)ccc2F)N=C(N)OC[C@@H]1F [Example 14]
OUTPUT: 8.05

INPUT: Field request: pIC50 | item: Cn1nc(C(F)(F)F)cc1C(=O)Nc1ccc(F)c([C@@]2(C)N=C(N)OC[C@@H]2F)c1 [Example 27]
OUTPUT: 6.15

INPUT: Field request: pIC50 | item: C[C@]1(c2cc(NC(=O)c3ccc(OCF)cn3)ccc2F)N=C(N)OC[C@@H]1F [Example 5]
OUTPUT: 6.97

INPUT: Field request: pIC50 | item: C[C@]1(F)COC(N)=N[C@]1(C)c1cc(NC(=O)c2nn(C(F)F)cc2Cl)ccc1F [Example 40]
OUTPUT: 7.51

INPUT: Field request: pIC50 | item: C[C@]1(c2cc(NC(=O)c3cnc(OCC4CC4)cn3)ccc2F)N=C(N)OC[C@@H]1F [Example 16]
OUTPUT: 6.23

INPUT: Field request: pIC50 | item: C[C@]1(c2cc(NC(=O)c3ccc(Cl)cn3)ccc2F)N=C(N)OC[C@@H]1OCC(F)(F)F [Example 45]
OUTPUT: 7.21

INPUT: Field request: pIC50 | item: C[C@]1(c2cc(NC(=O)c3ccc(C#N)cn3)ccc2F)N=C(N)OC[C@@H]1OCC(F)(F)F [Example 47]
OUTPUT: 6.57

INPUT: Field request: pIC50 | item: C[C@]1(c2cc(NC(=O)c3ccc(Cl)cn3)ccc2F)N=C(N)OC[C@@H]1F [Example 1]
OUTPUT: 9.00

INPUT: Field request: pIC50 | item: C[C@]1(c2cc(NC(=O)c3ncc(C#N)cc3Cl)ccc2F)N=C(N)OC[C@@H]1F [Example 7]
OUTPUT: 8.00

INPUT: Field request: pIC50 | item: C[C@]1(c2cc(NC(=O)c3ccc(F)cn3)ccc2F)N=C(N)OC[C@@H]1OCC(F)(F)F [Example 46]
OUTPUT: 7.19

INPUT: Field request: pIC50 | item: COc1ccc(C(=O)Nc2ccc(F)c([C@@]3(C)N=C(N)OC[C@@H]3F)c2)nc1 [Example 13]
OUTPUT: 7.19

INPUT: Field request: pIC50 | item: C[C@]1(c2cc(NC(=O)c3n[nH]cc3Cl)ccc2F)N=C(N)OC[C@@H]1F [Example 28]
OUTPUT: 7.46

INPUT: Field request: pIC50 | item: C[C@]1(F)COC(N)=N[C@]1(C)c1cc(NC(=O)C2CC2(F)F)ccc1F (stereo partly shown) [Example 44]
OUTPUT: 6.85

INPUT: Field request: pIC50 | item: C[C@]1(F)COC(N)=N[C@]1(C)c1cc(NC(=O)c2ccc(C#N)cn2)ccc1F [Example 38]
OUTPUT: 7.64

INPUT: Field request: pIC50 | item: C[C@]1(F)COC(N)=N[C@]1(C)c1cc(NC(=O)c2ncc(Cl)cc2Cl)ccc1F [Example 39]
OUTPUT: 8.40

INPUT: Field request: pIC50 | item: C[C@]1(c2cc(NC(=O)c3ccc(C(F)F)cn3)ccc2F)N=C(N)OC[C@@H]1F [Example 11]
OUTPUT: 9.00

Reference source: patent US8754075B2
